The origin of these recorded values is patent US20090076067A1.

- Test system: Leishmania donovani (MHOM/ET/67/L82 strain)
- ASSAY SUMMARY: Leishmania protozoa proliferation inhibition screening test
- Type: cell-based
- EXPERIMENTAL SETUP: amastigote, 72 hours, Alamar blue
Binarize EC50 Leishmania donovani at 0.1 µg/mL; below is yes (1), at or above is no (0).

Consider the following illustrative entries.
- COMPOUND: "CCN1C(=O)/C(=c2/s/c(=C3/SCCN3C)c(=O)n2CC)S/C1=N\\c1sc2cc(F)ccc2[n+]1C [Compound B-33]"
  ANSWER LABEL: "no (0)"
- COMPOUND: "CCN1C(=O)/C(=c2/s/c(=C3/C=CC=CN3C)c(=O)n2CC)S/C1=N\\c1sc2ccccc2[n+]1C [Compound B-30]"
  ANSWER LABEL: "no (0)"
- COMPOUND: "CCN1C(=O)/C(=c2/s/c(=C3/C=CC=CN3C)c(=O)n2CC)S/C1=N\\c1sc2cc(OC)ccc2[n+]1C [Compound B-28]"
  ANSWER LABEL: "yes (1)"
- COMPOUND: "CCN1C(=O)/C(=c2/s/c(=C3/C=CC=CN3C)c(=O)n2CC)S/C1=N\\c1sc2cc(F)ccc2[n+]1C [Compound B-32]"
  ANSWER LABEL: "no (0)"

Request: Does the reported EC50 Leishmania donovani of C=CCN1C(=O)/C(=c2/s/c(=C3/SCCN3C)c(=O)n2CC)S/C1=N\c1sc2cc(Cl)ccc2[n+]1C [Compound B-39] stay below 0.1 µg/mL?
Response: yes (1)
